experiment: AUC (0 to infinity) in Sprague-Dawley rat at 28 mg/kg, po measured up to 24 hrs; format: ADME, organism-based; design: route oral, dose 28 mg/kg, time <=24; conditions: in vivo
property: AUC(0-inf) (µM·h)

Cc1cc(C(C)NC(=O)c2[nH]cc(Cc3ccc(C(F)(F)F)nc3)c2C)no1 (stereo in doubt; form 1) :: 160

----------
settings: mouse, plasma
Known PPB of a selection of compounds
property: PPB (%)

Cc1c(C2(c3ccc(C(F)(F)F)nc3)CC2)c[nH]c1C(=O)NC(C)c1nc[nH]n1 (stereo in doubt; form 1) :: 92.1
Cc1cc(C(C)NC(=O)c2[nH]cc(Cc3ccc(C(F)(F)F)nc3)c2C)no1 (stereo in doubt; form 1) :: 92.2
Cc1c(Cc2ccc(C(F)(F)F)nc2)c[nH]c1C(=O)NC(C)c1cn[nH]c1 (stereo in doubt; form 1) :: 92.1
Cc1c(Cc2ccc(C(F)(F)F)nc2)c[nH]c1C(=O)NC(C)c1cnn(C)c1 (stereo in doubt; form 1) :: 93.6

The origin of these recorded values is ChEMBL document CHEMBL4811258.
